The measured values listed here are drawn from patent US20190255087A1.

Record form. Attribute: EE (mol %). Fill in for each entry.
# Experimental protocol: Encapsulated drug concentration and encapsulation efficiency (EE) in Cit-X-CPSNPs by LC-MS/MS
# Assay type: physicochemical
# Condition label: citrate-functionalized CPSNPs; weighted mean ± 95% confidence interval, n = 4-6 replicates

Name the recorded EE (mol %) for O=c1[nH]c(=O)n([C@H]2C[C@H](O)[C@@H](CO)O2)cc1F [FUdR, 5-fluoro-2′-deoxyuridine] .
< 0.01 mol %

Now give it for Nc1ccn([C@@H]2O[C@H](CO)[C@@H](O)C2(F)F)c(=O)n1 [Gem, 2′,2′-difluorodeoxycytidine] too.
< 0.01 mol %

Same thing, different molecule: O=c1[nH]c(=O)n([C@H]2C[C@H](O)[C@@H](COP(=O)(O)O)O2)cc1F [FdUMP]
41 (±16) mol %

What do we get for O=c1[nH]cc(F)c(=O)[nH]1 [Formulation 5FU, 5-fluorouracil] ?
0.11 (±0.04) mol %
